Target: human RORgT (Homo sapiens, UniProt P51449)
Sequence (P51449 267-516): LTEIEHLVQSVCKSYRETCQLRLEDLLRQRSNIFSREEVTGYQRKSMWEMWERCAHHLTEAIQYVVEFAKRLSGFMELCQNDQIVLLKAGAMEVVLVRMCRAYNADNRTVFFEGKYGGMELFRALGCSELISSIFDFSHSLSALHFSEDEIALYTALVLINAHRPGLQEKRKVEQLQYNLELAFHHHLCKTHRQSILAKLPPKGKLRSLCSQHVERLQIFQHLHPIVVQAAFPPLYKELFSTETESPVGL
Assay: RORgT Gal4 Luciferase Reporter Gene Assay
Conditions: engineered Jurkat cells overexpressing RORgT (LBD or full length) fused with Gal4 Luc reporter; 18 hours at 37° C.; luminescence
assay_endpoint: EC50 (nM)
// note: answer is a bare numeric in nM

Before answering, review these 3 worked examples.
The reported value for CS(=O)(=O)N1CC(C(=O)N2CC[C@@]3(S(=O)(=O)c4ccccc4)c4ccc(OCc5c(Cl)cccc5Cl)cc4CC[C@@H]23)C1 in terms of EC50 is 19

The reported value for O=C(C1CCS(=O)(=O)CC1)N1CC[C@@]2(S(=O)(=O)c3ccc(F)cc3)c3ccc(Oc4c(F)cccc4Cl)cc3CC[C@@H]12 in terms of EC50 is 1.1

The reported value for NC(=O)N1CCC(C(=O)N2CC[C@@]3(S(=O)(=O)c4ccc(F)cc4)c4ccc(OCc5cc(F)ccc5Cl)cc4CC[C@@H]23)CC1 in terms of EC50 is 12

Others:
The reported value for O=C(C1CCS(=O)(=O)CC1)N1CC[C@@]2(S(=O)(=O)c3ccc(F)cc3)c3ccc(COc4c(F)cccc4Cl)cc3CC[C@@H]12 in terms of EC50 is 10
